The measurements presented in this section are drawn from paper PMC12040169.

viability at 28.5 h, 10 µM values, listed per item
Assay: in vitro
Settings: human, hela cells, % viability

{"columns": ["compound", "measure unit", "viability at 28.5 h, 10 µM"],
 "data": [
  ["COc1ccc(CC(=O)N2CCCC2c2cccc(Cc3cccc(F)c3)n2)cc1 (stereo not drawn)", "%", 108],
  ["O=C(NCCN1CCOCC1)c1cc(-c2ccccc2)on1", "%", 89.5],
  ["CCOC(=O)c1c(-n2cnnn2)sc(C)c1C", "%", 93.6],
  ["COc1ccc([C@@]23CC[C@@H](CNS(=O)(=O)c4cccc(Cl)c4)C[C@@H]2N(C)CC3)cc1OC [CBK042202T]", "%", 99.8],
  ["Cc1cc(C(=O)C(C)Oc2ccc(-c3nnco3)cc2)c(C)n1-c1ccccc1 (stereo not drawn)", "%", 101],
  ["CC(=O)Nc1ccc(F)c(NC(=O)NCCN2CCCOC2=O)c1", "%", 92.8],
  ["Oc1cc(Cc2ccccc2)cnc1CN1CCOCC1", "%", 94],
  ["O=C1c2ccccc2C(=O)N1CSc1nnc(SCN2C(=O)c3ccccc3C2=O)s1", "%", 96.9],
  ["O=C(NC[C@H]1C[C@@H]2CC[N@]1C[C@@H]2CN1CCN(c2ncccn2)CC1)c1ccco1", "%", 88.1]
]}

###

Assay: in vitro
Conditions: human, hela cells, % viability
quantity kind: viability at 28.5 h, 10 µM (%)

{"columns": ["molecule", "quantity kind", "observed value"],
 "data": [
  ["N#Cc1c(N)ncnc1-c1ccccc1", "viability at 28.5 h, 10 µM", 84.2],
  ["Cc1nc(OCC(=O)O)c(C#N)c2c1COC(C)(C)C2", "viability at 28.5 h, 10 µM", 89.4],
  ["Cc1ccn(CCNC(=O)CC2CC3CCC2C3)n1 (stereo not shown)", "viability at 28.5 h, 10 µM", 110],
  ["Cc1cnc2c(N3CCCC3)nc(-c3cccnc3)cn12", "viability at 28.5 h, 10 µM", 98.5],
  ["Cc1cccc(C)c1NC(=O)CN1CCN(c2nccnc2OC2CCCCC2)CC1 [CBK082835T]", "viability at 28.5 h, 10 µM", 103],
  ["Cc1cc(C(F)(F)F)n(CC(C)CNC(=O)Cc2csc(C)n2)n1 (stereo not shown)", "viability at 28.5 h, 10 µM", 87.8],
  ["CC(C)N1C[C@@H](C(=O)NC(C)(C)C)[C@@]2(Cc3ccccc3C(=O)N2)C1", "viability at 28.5 h, 10 µM", 101],
  ["Cc1nc2c(c(=O)[nH]1)CN(Cc1ccc(Cl)c(Cl)c1)CC2", "viability at 28.5 h, 10 µM", 88.7],
  ["c1cnc(N2CCCC2)c(OC2CCCNC2)n1 (stereo not shown)", "viability at 28.5 h, 10 µM", 90.2],
  ["CCCc1n[nH]c(-c2cc(C(F)(F)F)ccc2F)c1C(=O)OCC", "viability at 28.5 h, 10 µM", 94.6]
]}

###

Assay: in vitro
Conditions: human, hela cells, % viability

{"columns": ["compound", "viability at 28.5 h, 10 µM (%)"],
 "data": [
  ["O=C(Nc1ccon1)c1nn(-c2ncccn2)c2ccccc12 [CBK048513]", 95.3],
  ["CCCCc1nnc(CC(C)C)o1 [CBK008679]", 106],
  ["OC1CCN(Cc2ccc(-c3ccc(F)cc3F)o2)CC1 [CBK283200]", 98.9],
  ["Cc1cc(=O)oc2cc(OCC(=O)Nc3ccc(S(=O)(=O)O)cc3)ccc12 [CBK301204N]", 89.6],
  ["N=c1n(CCCOc2ccccc2Cl)c2ccccc2n1CC(N)=O [CBK268927C]", 106],
  ["COc1ccc([C@@]23CC[C@@H](NC(=O)Nc4cccc(Br)n4)C[C@@H]2N(C)CC3)cc1OC [CBK045703]", 85.4],
  ["COC(=O)CCCNS(=O)(=O)c1ccc([N+](=O)[O-])cc1 [CBK261172]", 109],
  ["CC(C)C(=O)N1CC2(CCN(Cc3ccc(Cl)c(Cl)c3)CC2)c2ccccc21 [CBK126715]", 94.7],
  ["COc1ccccc1C(CC(=O)O)c1ccc2c(c1)OCO2 (stereo not drawn) [CBK286971]", 91.2]
]}
